assay_info: soluble on expression in E. coli; label from the status in PepcDB or PDB records

{"record_sequence": "MVKCLSAHNKAPHVSVITPSYNSRRFIGETILSVQNQSYENWEMIIVDDCSTDQSAAKIKEIIEGDSRIRLLSLKENVGAAKARNLAIREARGRYIAFLDSDDIWLPHKLKTQLLFMEEMNIAFSYASYSLIDENGNELNREVSVPKSVDYHYLVGNTIIGCLTVMIDREKIPYVEMPSVQPEDTALWLNLLHEGHEAKGIQQVLAKYRIVANSVSSNKVRAAFRYWKLLRDQKSLNAVQSFYYFSKYAYHAYKKNKINVVGKTQLLEHHHHHH", "soluble on expression in E. coli": "not soluble"}
{"record_sequence": "MIRIGHGFDVHRFGGEGPIIIGGVKIPYEQGLIAHSDGDVALHALSDALLGAIAAGDIGRHFPDTDDKWKGADSRELLKDVYRRVKAQGYVLGNADVTIIAQAPKMAPYIQAMCAAIAEDLETDLGNINVKATTTEKLGFTGRKEGIACEAVVLLRKA", "soluble on expression in E. coli": "not soluble"}
{"record_sequence": "MTCWLRGVTATFGRPAEWPGYLSHLCGRSAAMDLGPMRKSYRGDREAFEETHLTSLDPVKQFAAWFEEAVQCPDIGEANAMCLATCTRDGKPSARMLLLKGFGKDGFRFFTNFESRKGKELDSNPFASLVFYWEPLNRQVRVEGPVKKLPEEEAECYFHSRPKSSQIGAVVSHQSSVIPDREYLRKKNEELEQLYQDQEVPKPKSWGGYVLYPQVMEFWQGQTNRLHDRIVFRRGLPTGDSPLGPMTHRGEEDWLYERLAP", "soluble on expression in E. coli": "soluble"}
{"record_sequence": "MGSDKIHHHHHHMPNSYTHYHDENVTDPHLRATGAISVLPLGAHEQHGPHLPFETDTLIAAGIVSRLAAVLPAHLPVSFLPVEPVGYSIEHMDVPGTKTLCYDEAIERWLGIAEAEYEKGVRKFVMLNAHGGNSPLMTIVATEARARFGMLAVATSWTRFGVPADIVKPQDKAVDIHGGDIETSVMLALHPERVVMEKAANFPSRQSDFSQRFSHLRAYGPHAFGWLMSDLNPDGVAGNAAAASAGKGERLISHAVNGLLELLEDVHAFDITLFHNKI", "soluble on expression in E. coli": "not soluble"}
{"record_sequence": "MGSDKIHHHHHHMKVLLINGSPNQYGCTYTALNEITKVLSKHDIKTEILYLGKETIPGCISCASCFETGKCIRNDKVNELIEDLDNIDGIIIGSPVYFSSATGQLTSFLDRLFFIAGSRMATKLGASVVSCRRGGASATFDQLNKYFSISNMPIVSSQYWNQVHGFTPEDVMKDEEGLQTMRTLGENMAWLLKCISAGKKAGIKEPQYEETIMTNFIK", "soluble on expression in E. coli": "not soluble"}
{"record_sequence": "MHTDTTRENPQASAPQAADSSQDLAATAPGQLRVIKRNGTVVPYTDDKITVAITKAFLAVEGGTAAASSRIHDTVRRLTEQVTATFKRRMPSGGTIHIEEIQDQVELALMRAGEQKVARDYVIYREARAAERKNAGAASDVAQPHP", "soluble on expression in E. coli": "not soluble"}
{"record_sequence": "MAITAKNAQLYGLDLELGLETGLAADVDNDSMSGLVLVELLSPYHQLETRFKLESQTALAFQAMADSAAKDGIKLAICSAYRPFDRQLAIWNAKASGKRVVLDINEQPVDITPLSESELVDLILLWSALPGASRHHWGTDIDVFDAEKIEVKSLRLVEAEYRDGGPCAQLHQWLVANAKDFGFYFPFQRGQSAVSAEPWHISYFPVSQILLPQFEVQALTQIIAHSDMLLKDAVLARLPELVAEYVHRIAQP", "soluble on expression in E. coli": "soluble"}
{"record_sequence": "AIARENEAVKPTIQAVYLAAGLSSRFGGRIKCLQEVGRHGETLLELSVRQLCEAYPAISSLVFVVSEATHLPIHALIGEQFYGLPVYFCVQRVPAWRKRPLGTVDALLAAREHIHGPFIVLNGDSLYGVAALSLVCNHITAAKTACMPGYKLREVLPKEGRVNRAIVQTDERHRVLEIVEQYNIGFEDIEEGRYTGDELTSMNVFGFHDTSIFARADERFRRFLSELEALRDDHHLQQQQQSVKRCSTDENDVYAHKEYILSTMLNELLHDAQIELMVLSCNSIRTPLELTNPGDFAFVKNHLDLVGL", "soluble on expression in E. coli": "soluble"}
{"record_sequence": "MAIFRDYSINPTEHDRTIGDRRRHRELVEKAIKDNLADIVSEESIIGESKSKKIKIPIRGLKEYKFLYGNNSSSVGSGTGNEKKGDIIGKEQMGNGSKGKGKGAGNSEGEDIYETEVTIEEVFSYLLEDLNLPNLDKKKYSEIVTDSSKKKAGYQKYGIRPRLAKKRTVIEKIKREQSRKRAIKELGKDDKVERLPFSEEDLRYHRIKEKPKKECNAAIMCVMDCSGSMDSTKKYLARSFFFILSKFIRMKYVNVEIAFISHSTVGREVTETEFFHKVESGGTYISSGLNTAMDIIKERFNPATWNIYGFYVSDGDNFTEDDERAIKSMRKFCEIANMIGYAEILPYSYSGTMKYKFDNYVKDKNFISSTIRNKEDLWPVLKKMLIKELKELEHHHHHH", "soluble on expression in E. coli": "soluble"}
{"record_sequence": "MAHHHHHHMGTLEAQTQGPGSMDNKKPKIITIASIKGGVGKSTSAIILATLLSKNNKVLLIDMDTQASITSYFYEKIEKLGINFTKFNIYEILKENVDIDSTIINVDNNLDLIPSYLTLHNFSEDKIEHKDFLLKTSLGTLYYKYDYIVIDTNPSLDVTLKNALLCSDYVIIPMTAEKWAVESLDLFNFFVRKLNLFLPIFLIITRFKKNRTHKTLFEILKTKDRFLGTISEREDLNRRIAENNNFDLNKDYIKEYENILEIFLKKI", "soluble on expression in E. coli": "soluble"}
{"record_sequence": "MHLRLRTKNGLITITVSQQCTIRELSEEIERKTGIEVAKQKILYGFPQRELRADADKPVESVLQSGDSLTVDKLSAETEQERTVESSPASTENAYVRRKVPDDNSCLFHAICYVFRSGSVAQLRHIISETVRLNPDLYTEAFLGKSNHEYSRWILLPETWGGAIELSILSKYFQTEISVFDIQTLRLDRYGEAENYEERVFLLYDGIHYDPIARAFLGASREYDVTVFKIWDNEALVGAKSVAEEANKNRQYTDLASFTLMCRNCGAKLKGETSAVEHAKQTGHTNFTEA", "soluble on expression in E. coli": "not soluble"}
